Condition Label: 293.15 K; 101.3 kPa; Liquid
# maps each entry to its mass density
# value in kg/m3; strip the unit string

[[record]]
compound = "CCCCCCC [heptane]"
readout_kind = "mass density"
unit_label = "kg/m3"
value_observed = 683.6

[[record]]
compound = "CCCCCCCCC [nonane]"
readout_kind = "mass density"
unit_label = "kg/m3"
value_observed = 717.7

[[record]]
compound = "CCCCCCCC [octane]"
readout_kind = "mass density"
unit_label = "kg/m3"
value_observed = 702.5

[[record]]
compound = "COC(=O)OC [dimethyl carbonate]"
readout_kind = "mass density"
unit_label = "kg/m3"
value_observed = 1070


Could you now consider this next compound?
Recorded mass density (compound CCCCCC [hexane] ): 659.3
